System: RAW264.7
Assay: Effect on inflammatory mediators in LPS-stimulated mouse RAW264.7 cells assessed as 5-LO accumulation at 20 uM after 24 hrs by dot immunoblotting
Assay type: functional
// returns -1 unless Activity is strictly below 80%, in which case 1

CC(C)c1ccc(-c2cc(-c3ccc4c(c3)CCCC4)nc(Cl)c2C#N)cc1 : -1

q: Just wondering, is Activity of `CC(C)c1ccc(-c2cc(-c3ccc4c(c3)CCCC4)[nH]c(=S)c2C#N)cc1` below 80%?
a: 1

q: Next: `COc1ccc(-c2cc(-c3ccc4c(c3)CCCC4)nc(OCC(=O)NCc3ccccc3)c2C#N)cc1OC`
a: 1
